Kindly state AmpC inhibition for each of the entries shown.
# System: AmpC beta-lactamase (E. coli)
# protocol notes: AmpC inhibition relative to DMSO; higher = more inhibition
# details: 33 µM; detergent: 0.01% Triton X-100
Expressed in %, but write only the number.

Form field: AmpC inhibition recorded for C=C(C)[C@@H](CC=C(C)C)C[C@@]12C[C@@H](CC=C(C)C)C(C)(C)[C@@](CC=C(C)C)(C(=O)/C(=C(\O)c3ccc(O)c(O)c3)C1=O)C2=O with AmpC beta-lactamase (E. coli) (enter value)
5.26

Now consider CC1(C)CCC2=C(O1)c1ccccc1C(=O)C2=O and answer again.
6.33

Now consider ClC1=CC=C(C2=CSC(N/N=C3CCCC/3)=N2)C=C1 and answer again.
1.83

Now consider CNC(=O)Nc1ccc2c(c1)[C@@]1(CC2)OC(=O)N(CC(=O)N(Cc2ccc(F)cc2)[C@@H](C)C(F)(F)F)C1=O and answer again.
-0.0601

Now consider COc1ccc(/C(Cl)=C(\C=O)c2ccc(OC)cc2)cc1 and answer again.
1.35

Now consider CC(C)([C@](C1=O)(C2=O)C/C=C(C)\C)[C@@H](C[C@]31C[C@@H](C(C)(OC3=C2C(C4=CC(O)=C(C=C4)O)=O)C)C/C=C(C)\C)C/C=C(C)\C and answer again.
4.67

Now consider CCCCCCCc1ccc(CCc2cccc(O)c2C(=O)O)cc1 and answer again.
9.04

Now consider CC(Cc1ccc(O)c(O)c1)C(C)Cc1ccc(O)c(O)c1 (configuration not stated) and answer again.
1.16

Now consider O=C(O[C@@H]1Cc2c(O)cc(O)cc2O[C@@H]1c1cc(O)c(O)c(O)c1)c1cc(O)c(O)c(O)c1 and answer again.
4.57

Now consider COc1cc(/C=C/c2cc(/C=C/c3ccc(O)c(OC)c3)n(-c3ccc(C(=O)[O-])cc3)n2)ccc1O.[Na+] and answer again.
4.87

Now consider CCCC1(c2ccccc2)NC(=O)N(CC(=O)N(C)Cc2c(F)cccc2Cl)C1=O (configuration not stated) and answer again.
6.15

Now consider COc1ccc(/C(Cl)=C(/C=O)c2ccc(OC)cc2)cc1 and answer again.
8.7
